experiment: Pharmacokinetic assay in Balb/c mice (plasma and brain tissue); format: in vivo; settings: male, mouse, po, Brain, p.o. 5 mg/kg, read-out: Peak time tmax
Tmax values by entry
# value in h; strip the unit string

Answered cases to consult:
O=C(N[C@H]1C[C@H](CCN2CCN(c3cccc(Cl)c3Cl)CC2)C1)c1ncco1 [Example 12A]: 1
CCN(C)C(=O)NC1CC(CCN2CCN(c3cccc4sccc34)CC2)C1 (stereo not drawn): 1

Summary for this molecule, O=C(N[C@H]1C[C@H](CCN2CCN(c3cccc(Cl)c3Cl)CC2)C1)c1cccc2ncccc12 [Example 19A] : Tmax is 1

* * *

Assay: Pharmacokinetic assay in Balb/c mice (plasma and brain tissue)
Assay type: in vivo
Settings: male, mouse, po, Brain, p.o. 5 mg/kg, read-out: Area under curve AUC0-t
Procedure: Balb/c mice were used as test animals. The pharmacokinetic behavior in mouse body (plasma and brain tissue) of the compounds of Examples of the present invention was studied at an oral administration dose of 5 mg/kg. Compounds of the Examples of the present invention, prepared by the applicant. […] The main parameters of pharmacokinetics were calculated by WinNonlin 6.1. […]
AUC(0-t) values by entry
# value in ng·h/mL; strip the unit string

Answered cases to consult:
O=C(N[C@H]1C[C@H](CCN2CCN(c3cccc(Cl)c3Cl)CC2)C1)c1nccs1 [Example 7A]: 1350
CCN(C)C(=O)NC1CC(CCN2CCN(c3cccc4sccc34)CC2)C1 (stereo not drawn) [Example 24]: 2190

From here, focus on the item given below.
Summary for this molecule, O=C(N[C@H]1C[C@H](CCN2CCN(c3cccc(Cl)c3Cl)CC2)C1)C1(O)CC1 [Example 6A] : AUC(0-t) is 1080
